Would you kindly list kcat for each of these proteins?
Substrate: p-NP-C4
Settings: pH 7; 25 °C
Reply with the number, then its unit.

Lookup: Find the recorded kcat belonging to unnamed (protein) MTEPTVARPDIDPVLKMLLDTFPVTFTAADGVEVARARLRQLKTPPELLPELRIEERTVGYDGLTDIPVRVYWPPVVRDNLPVVVYYHGGGWSLGGLDTHDPVARAHAVGAQAIVVSVDYRLAPEHPYPAGIDDSWAALRWVGENAAELGGDPSRIAVAGDSAGGNISAVMAQLARDVGGPPLVFQLLWYPTTMADLSLPSFTENADAPILDRDVIDAFLAWYVPGLDISDHTMLPTTLAPGNADLSGLPPAFIGTAEHDPLRDDGACYAELLTAAGVSVELSNEPTMVHGYVNFALVVPAAAEATGRGLAALKRALHA and report it.
Found: 185 s⁻¹

Lookup: Then unnamed (protein) MLDMPIDPVYYQLAEYFDSLPKFDQFSSAREYREAINRIYEERNRQLSQHERVERVEDRTIKGRNGDIRVRVYQQKPDSPVLVYYHGGGFVICSIESHDALCRRIARLSNSTVVSVDYRLAPEHKFPAAVYDCYDATKWVAENAEELRIDPSKIFVGGDSAGGNLAAAVSIMARDSGEDFIKHQILIYPVVNFVAPTPSLLEFGEGLWILDQKIMSWFSEQYFSREEDKFNPLASVIFADLENLPPALIITAEYDPLRDEGEVFGQMLRRAGVEASIVRYRGVLHGFINYYPVLKAARDAINQIAALLVFD ?
Found: 140 s⁻¹

Lookup: Then unnamed (protein) MVLKQRANYLGFLIVFFTAFLVEAVPIKRQSNSTVDSLPPLIPSRTSAPSSSPSTTDPEAPAMSRNGPLPSDVETKYGMALNATSYPDSVVQAMSIDGGIRAATSQEINELTYYTTLSANSYCRTVIPGATWDCIHCDATEDLKIIKTWSTLIYDTNAMVARGDSEKTIYIVFRGSSSIRNWIADLTFVPVSYPPVSGTKVHKGFLDSYGEVQNELVATVLDQFKQYPSYKVAVTGHSLGGATALLCALDLYQREEGLSSSNLFLYTQGQPRVGDPAFANYVVSTGIPYRRTVNERDIVPHLPPAAFGFLHAGEEYWITDNSPETVQVCTSDLETSDCSNSIVPFTSVLDHLSYFGINTGLCT ?
Found: 420 s⁻¹
